Reported IC50 values for a set of compounds
# Test system: ACHN
# METHOD DESCRIPTION: Antitumor activity was evaluated against human renal adenocarcinoma cell line ACHN.
# Format: functional, cell-based

{"columns": ["GIVEN SMILES", "IC50"],
 "data": [
  ["O=Nc1c2ccccc2n2nnc3ccccc3c12", "12 µM"],
  ["COc1cccc2c1C(=O)c1c(O)c3c(c(O)c1C2=O)C[C@@](O)(C(=O)CO)C[C@@H]3O[C@H]1C[C@H](N)[C@H](O)[C@H](C)O1", "0.4 µM"],
  ["O=Nc1c2cc([N+](=O)[O-])ccc2n2nnc3ccccc3c12", "> 50 µM"],
  ["O=Nc1c2cc(Cl)ccc2n2nnc3ccccc3c12", "2.6 µM"],
  ["Cc1ccc2nnn3c4ccccc4c(N=O)c3c2c1", "8.7 µM"],
  ["COc1ccc2c(c1)c(N=O)c1c3ccccc3nnn21", "14 µM"],
  ["O=Nc1c2ccccc2n2nnc3ccc(Cl)cc3c12", "11 µM"],
  ["O=Nc1c2ccccc2n2nnc3cc(Cl)ccc3c12", "7.6 µM"]
]}

---

# Tested on: CCRF-SB
# METHOD DESCRIPTION: Antitumor activity was evaluated against leukemia cell line CCRF-SB(human acute B lymphoblastic leukemia).
# Type: functional, cell-based
# IC50 per entry

{"columns": ["COMPOUND", "TGT", "IC50 [µM]"],
 "data": [
  ["O=Nc1c2ccccc2n2nnc3ccccc3c12", "CCRF-SB", 7.4],
  ["Cc1ccc2nnn3c4ccccc4c(N=O)c3c2c1", "CCRF-SB", 0.7],
  ["O=Nc1c2cc([N+](=O)[O-])ccc2n2nnc3ccccc3c12", "CCRF-SB", 11],
  ["O=Nc1c2cc(Cl)ccc2n2nnc3ccccc3c12", "CCRF-SB", 0.4],
  ["COc1cccc2c1C(=O)c1c(O)c3c(c(O)c1C2=O)C[C@@](O)(C(=O)CO)C[C@@H]3O[C@H]1C[C@H](N)[C@H](O)[C@H](C)O1 [DOXORUBICIN]", "CCRF-SB", 0.01]
]}

---

# Tested on: KB
# METHOD DESCRIPTION: Antiproliferative activity against drug-resistant tumor cell line KBMDR.
# Assay type: functional, cell-based
# EXPERIMENTAL SETUP: Homo sapiens

{"columns": ["MOLECULE", "IC50 / nM"],
 "data": [
  ["COc1cc([C@@H]2c3cc4c(cc3[C@@H](O[C@@H]3O[C@@H]5CO[C@@H](C)O[C@H]5[C@H](O)[C@H]3O)[C@H]3COC(=O)[C@H]23)OCO4)cc(OC)c1O [ETOPOSIDE]", 26200],
  ["O=Nc1c2cc(Cl)ccc2n2nnc3ccccc3c12", 1100],
  ["CC[C@@]1(O)C(=O)OCc2c1cc1n(c2=O)Cc2cc3ccccc3nc2-1", 70],
  ["CC[C@]1(O)C[C@H]2CN(CCc3c([nH]c4ccccc34)[C@@](C(=O)OC)(c3cc4c(cc3OC)N(C=O)[C@H]3[C@@](O)(C(=O)OC)[C@H](OC(C)=O)[C@]5(CC)C=CCN6CC[C@]43[C@@H]65)C2)C1", 350]
]}

---

# System: Shigella
# METHOD DESCRIPTION: Antibacterial activity was evaluated against shigella.
# Format: functional
In this section, each of the compounds is paired with its reported MIC.

{"columns": ["GIVEN SMILES", "MIC"],
 "data": [
  ["CN[C@@H]1[C@H](O[C@H]2[C@H](O[C@H]3[C@H](O)[C@@H](O)[C@H](N=C(N)N)[C@@H](O)[C@@H]3N=C(N)N)O[C@@H](C)[C@]2(O)C=O)O[C@@H](CO)[C@H](O)[C@H]1O", "2.1 µM"],
  ["Cc1ccc2nnn3c4ccccc4c(N=O)c3c2c1", "> 200 µM"],
  ["COc1ccc2c(c1)c(N=O)c1c3ccccc3nnn21", "> 200 µM"],
  ["O=Nc1c2ccccc2n2nnc3cc(Cl)ccc3c12", "> 200 µM"],
  ["O=Nc1c2ccccc2n2nnc3ccccc3c12", "25 µM"],
  ["O=Nc1c2cc(Cl)ccc2n2nnc3ccccc3c12", "> 200 µM"],
  ["O=Nc1c2ccccc2n2nnc3ccc(Cl)cc3c12", "> 200 µM"],
  ["O=Nc1c2cc([N+](=O)[O-])ccc2n2nnc3ccccc3c12", "> 200 µM"]
]}

Hello, the source for this data is ChEMBL document CHEMBL1132294, in case you need it.
